Kindly state cell viability for each of the entries shown.
# Tested on: P12-Ichikawa
# ASSAY_NAME: cell viability relative to DMSO control; higher = less cytotoxic
# TEST_CONDITIONS: RPMI 5 mM glucose + 10% FBS; 48 h; 0.00702 µM
Numbers only, in %.

Solved cases below.
COc1cccc2c1CCCC2CCCN1CCN(C2CCCCC2)CC1 (stereo not drawn)	117
Cc1ncc([N+](=O)[O-])n1CC(C)O (stereo not drawn)	101

Hey, can you go through the list below and give me cell viability for every item?
1. COC(=O)N1CC2(CC2)C[C@H](C(=O)NO)[C@H]1C(=O)N1CCN(c2ccccc2)CC1
2. CON(C)C(=O)N1/N=C(S[C@@]1(CCCN)C2=CC=CC=C2)/C3=CC(=CC=C3F)F
3. COc1cccc2c1[C@]13CCN(CC4CC4)[C@H](C2)[C@]1(OC)CCC(=O)C3
4. C#CCN[C@@H]1CCc2ccccc21.CS(=O)(=O)O
5. CC(NCCc1ccc(O)cc1)C(O)c1ccc(O)cc1 (stereo not drawn)
6. COC1=CC=C(C=C1O)C/2=C/C(=O)C3=C(O2)C=C(O[C@@H]4O[C@H](CO[C@@H]5O[C@@H](C)[C@H](O)[C@@H](O)[C@H]5O)[C@@H](O)[C@H](O)[C@H]4O)C=C3O
7. COC(=O)\C1=C\CCN(C)C1

[119, 123, 56.9, 90.5, 122, 118, 113]

Hey, can you go through the list below and give me cell viability for every item?
1. OC1=CC2=C(C(=C1)O)C(=O)\C(=C(/O2)C3=CC(=C(O)C=C3)O)O
2. OC[C@H]1O[C@@H](Oc2cc(O)cc(/C=C/c3ccc(O)cc3)c2)[C@H](O)[C@@H](O)[C@@H]1O
3. CCCC1OC2C[C@H]3[C@@H]4CCC5=CC(=O)C=C[C@]5(C)[C@H]4C(O)C[C@]3(C)[C@]2(C(=O)CO)O1 (stereo partly drawn)
4. CC1(C)C(N(O)C(=O)Nc2ccc(Cl)cc2)N(c2ccc(Cl)cc2)C(=O)N1CC(=O)N/N=C/C=C/c1ccc([N+](=O)[O-])o1 (stereo not drawn)

1: 103; 2: 106; 3: 99.1; 4: 105

Hey, can you go through the list below and give me cell viability for every item?
1. NC(=O)OCC(COC(N)=O)c1ccccc1
2. COc1cc(CNC(=O)CCCC/C=C/C(C)C)ccc1O
3. COc1cc(N2CCC(N(C)C)CC2)ccc1Nc1ncc(Cl)c(Nc2ccccc2P(C)(C)=O)n1
4. CNC(=O)Nc1ccc(-c2nc(N3CC4CCC(C3)O4)c3cnn(C4CCC5(CC4)OCCO5)c3n2)cc1
5. Cn1cc(C[C@@H](N)C(=O)O)c2ccccc21

[120, 109, 123, 75.8, 104]

----------
Kindly state cell viability for each of the entries shown.
# Tested on: SEM cells
# ASSAY_NAME: cell viability relative to DMSO control; higher = less cytotoxic
# TEST_CONDITIONS: RPMI 5 mM glucose + 10% dialyzed FBS; 48 h; 0.0632 µM
Numbers only, in %.

Hey, can you go through the list below and give me cell viability for every item?
1. CCN1CCN(C(=O)Cc2ccc(Nc3ncc(F)c(Nc4ccc(C(=O)Nc5ccccc5Cl)cc4)n3)cc2)CC1
2. COc1ncc(-c2ccc3c(Nc4cc(Oc5cc(F)cc(F)c5)cc(C(=O)O)c4)c([S+](=O)([O-])NC4CC4)cnc3c2)c(OC)n1
3. CCN(c1ccccc1)c1cc(NC)[n+](C)c(C)n1

[116, 85, 99.9]

Hey, can you go through the list below and give me cell viability for every item?
1. O.O.CCN1CCN(C(=O)N[C@H](C(=O)N[C@H]2[C@@H]3SC\C(=C(/N3C2=O)C(O)=O)CSC4=NN=N[N]4C)C5=CC=C(O)C=C5)C(=O)C1=O
2. COC1=CC=C(C=C1O)C/2=C/C(=O)C3=C(O2)C=C(O[C@@H]4O[C@H](CO[C@@H]5O[C@@H](C)[C@H](O)[C@@H](O)[C@H]5O)[C@@H](O)[C@H](O)[C@H]4O)C=C3O
3. CC(O)C1C2C(C)\C(=C(/N2C1=O)C(O)=O)SC3CNC(C3)C(=O)N(C)C (stereo not drawn)
4. C#CCN[C@@H]1CCc2ccccc21.CS(=O)(=O)O
5. CC(C)(C)[C@H](NC(=O)c1ccc(N)c(Cl)c1)C(=O)N1CCC[C@H]1C(=O)N[C@H](C#N)CC(=O)O

1: 91.6; 2: 123; 3: 104; 4: 99.7; 5: 117

----------
# Test system: P12-Ichikawa
# ASSAY_NAME: cell viability relative to DMSO control; higher = less cytotoxic
# TEST_CONDITIONS: HPLM + 10% dialyzed FBS; 48 h; 0.00234 µM
MEASUREMENT_LABEL: cell viability
The reply must contain the numeric value and, after it, the unit.

Solved cases below.
C[C@@H](O)[C@@H]1NC(=O)[C@H](CCCCN)NC(=O)[C@@H](Cc2c[nH]c3ccccc23)NC(=O)[C@H](Cc2ccccc2)NC(=O)[C@@H](NC(=O)[C@H](N)Cc2ccccc2)CSSC[C@@H](C(=O)N[C@H](CO)[C@@H](C)O)NC1=O	94.4%
Cc1c(C)c2c(c(C)c1O)CCC(C)(COc1ccc(CC3SC(=O)NC3=O)cc1)O2 (configuration not stated)	127%
CC(C)Oc1ccc(C(=O)N[C@H](CNC(=O)CN(C)C)Cc2ccc(-c3cn4cccc([C@H](C)O)c4n3)cc2)cc1Cl	115%

Hey, can you go through the list below and give me cell viability for every item?
1. CCOC1=CC=CC=C1N\2C(=O)C3=C(C=CC=C3)\N=C2C(C)N4CCN(CC4)C(=O)COC5=CC=C(Cl)C=C5 (configuration not stated)
2. C[C@@]1(C(=O)Nc2ccc(F)nc2)CCCN1c1nc(Nc2cc(C3CC3)[nH]n2)c2cccn2n1
3. N[S+](=O)([O-])OC[C@@H]1C[C@@H](n2ccc3c(N[C@H]4CCc5ccccc54)ncnc32)C[C@@H]1O
4. OC[C@H]1O[C@@H](Oc2cc(O)cc(/C=C/c3ccc(O)cc3)c2)[C@H](O)[C@@H](O)[C@@H]1O

1: 120%; 2: 109%; 3: 102%; 4: 110%

----------
# System: SEM cells
# ASSAY_NAME: cell viability relative to DMSO control; higher = less cytotoxic
# TEST_CONDITIONS: HPLM + 10% dialyzed FBS; 48 h; 0.000781 µM
MEASUREMENT_LABEL: cell viability (%)
One number for each entry, in %.

Solved cases below.
CCOC(=O)\C1=C\[C@@H](OC(CC)CC)[C@H](NC(C)=O)[C@@H](N)C1	73.2
OCCn1cc(-c2cnc3nnn(Cc4ccc5ncccc5c4)c3n2)cn1	102
COC1=CC=C(C=C1O)C/2=C/C(=O)C3=C(O2)C=C(O[C@@H]4O[C@H](CO[C@@H]5O[C@@H](C)[C@H](O)[C@@H](O)[C@H]5O)[C@@H](O)[C@H](O)[C@H]4O)C=C3O	95.1

Hey, can you go through the list below and give me cell viability for every item?
1. Nc1nc(Cl)nc2c1ncn2[C@@H]1O[C@H](CO)[C@@H](O)[C@@H]1F
2. CNC(=O)[C@H](CC/1=C/N=C\2/C=C\C\C=C12)NC(=O)[C@H](CC(C)C)CC(=O)NO

[14.5, 104]

Hey, can you go through the list below and give me cell viability for every item?
1. CN1CCN(CCCN2c3ccccc3Sc3ccc(C(F)(F)F)cc32)CC1
2. N#Cc1ccc(C(c2ccc(C#N)cc2)n2cncn2)cc1
3. CC(C)Oc1ccc(C(=O)N[C@H](CNC(=O)CN(C)C)Cc2ccc(-c3cn4cccc([C@H](C)O)c4n3)cc2)cc1Cl
4. NC(=O)c1ncn([C@@H]2O[C@H](CO)[C@@H](O)[C@H]2O)c1O
5. C[C@@H]1C[C@H]2[C@@H]3\C=C(C)/C4=C/C5=C(C[C@]4(C)[C@H]3[C@@H](O)C[C@]2(C)[C@@]1(O)C(=O)CO)C=N[N]5C6=CC=CC=C6

74.1
121
116
128
143

Hey, can you go through the list below and give me cell viability for every item?
1. C[C@H]1COC/2=C1/C(=O)C(=O)C3=C4CCCC(C)(C)C4=CC=C23
2. CN(Cc1cc(Br)cc(Br)c1N)C1CCCCC1
3. O=C(/C=C/c1ccc(O)cc1)c1ccc(O)cc1O
4. CC(O)C1C2C(C)\C(=C(/N2C1=O)C(O)=O)SC3CNC(C3)C(=O)N(C)C (stereo not drawn)
5. COc1cccc2c1CCCC2CCCN1CCN(C2CCCCC2)CC1 (stereo not drawn)
6. CCNC(=O)Nc1ccc2ncc(Nc3ccc(C)cc3)nc2n1

1. 116
2. 99.1
3. 113
4. 79.6
5. 88.4
6. 129

Hey, can you go through the list below and give me cell viability for every item?
1. CC(NCCc1ccc(O)cc1)C(O)c1ccc(O)cc1 (stereo not drawn)
2. CC(=O)[C@]1(O)Cc2c(O)c3c(c(O)c2[C@@H](O[C@H]2C[C@H](N)[C@H](O)[C@H](C)O2)C1)C(=O)c1ccccc1C3=O

1: 84.4; 2: 118
